- system: T1, cyno PRLR ECD-his6 protein (cyno)
- T1 chain: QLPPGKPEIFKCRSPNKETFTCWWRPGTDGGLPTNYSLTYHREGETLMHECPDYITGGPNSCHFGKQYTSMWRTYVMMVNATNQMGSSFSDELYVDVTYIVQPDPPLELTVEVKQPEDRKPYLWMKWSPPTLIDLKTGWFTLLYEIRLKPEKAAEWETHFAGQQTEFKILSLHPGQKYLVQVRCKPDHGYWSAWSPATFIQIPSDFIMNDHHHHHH
- method.notes: ELISA on ECD
What EC50 was measured for each of the following?
One number for each entry, in nM.

// below: answered binders
Ab7 (antibody, V domains shown, murine monoclonal, isotype G1; also called murine Ab7) VH: QVQLQQPGAELVMPGTSVKLSCKASGYTFTSYWIHWVKQRPGQGLEWIGEIDPSDSYTNYNQKFKGKATLTVDRSSSTAYMQLSSLTSEDSAVYYCGRSFFTNWFAYWGQGTLVTVSA VL: DVVMTQTPLSLPVSLGDQASISCRSSQSLVHSNGNTYLHWYLQKPGQSPKLLIYKVSNRFSGVPDRFSGSGSGTDFTLKINRVEAEDLGVYFCSQSTHVPFTFGSGTKLEIK	0.202
LFA102 (antibody, human IgG1, kappa, V domains shown, humanized IgG1 kappa comparator (WO 2008022295)) VH: EVQLVESGGGLVQPGGSLRLSCAVSGFTFSSYGMSWVRQAPGKRLEWVATVSSGGTYTYYPDSVKGRFTISRDNSKNTLYLQMNSLRAEDTAMYYCARHRGNYYATYYYAMDYWGQGTLVTVSS VL: DIVLTQSPDSLAVSLGERATINCKASKSVSTSGYTYMHWYQQKPGQPPKLLIYLASNRESGVPDRFSGSGSGTDFTLTISPVQAEDVATYYCQHSGELPPSFGQGTKLEIKR	0.154

Turning now to a further binder:
Which EC50 reading was recorded for the binder chAb5 (antibody, human IgG1, kappa, V domains shown, chimeric, murine variable and human G1/kappa constant regions) VH: QVQLQQPGAELVRPGTSVKLSCKASGYTFTSFWMHWVKQRPGQGLEWIGVIDPSDTYTNYNQKFKGKATLTVDTSSSTAYMQLSSLTSEDSAVYYCARGDYSNWFTYWGQGTLVTVSA VL: DVVMTQTPLSLPVSLGDQASISCRSSQRLVHSNGNTYLHWYLQKPGQSPKLLIYKVSNRFSGVPDRFSGSGSGTDFTLKISRVEAEDLGVYFCSQSTHVPWTFGGGTKLEIKT ? 0.103
